# experiment.notes: survival rescue of mitochondrial mutant cells in low glucose, primary screen, MELAS cybrids, Rieske KO mouse fibroblasts, CellTiter-Glo (AID 1508586); note: test concentration not given here
# applied.conditions: MELAS cybrid survival, CellTiter-Glo 48 h, stronger effect = higher value
Non-standard residues stand in square brackets, D forms with d. Residues, ends and D or L forms follow the SMILES beside them. pGlu = O=C1CC[C@@H](C(=O)O)N1; Thz = O=C(O)[C@@H]1CSCN1
Outcome: YES for z-score of at least -0.2; NO for anything lower.

# compound, classification
data = [
    ("CN(C)CCCSC(=N)N", "YES"),
    ("Cc1onc(-c2ccccc2)c1C(=O)NC1C(=O)N2C1SC(C)(C)C2C(=O)O (stereo not drawn)", "YES"),
    ("Cc1c(-c2cnccn2)ssc1=S", "YES"),
    ("Nc1nc(Cl)nc2c1ncn2[C@H]1C[C@H](O)[C@@H](CO)O1", "YES"),
    ("C=CCc1ccc(O)c(-c2ccc(O)c(CC=C)c2)c1", "NO"),
    ("CC[C@H](NC(C)C)[C@H](O)c1ccc(O)c2[nH]c(=O)ccc12", "YES"),
    ("CC1=CC(=O)NS(=O)(=O)O1", "NO"),
    ("O=[N+]([O-])O[C@@H]1CO[C@H]2[C@@H]1OC[C@@H]2O", "NO"),
    ("C[C@H]1[C@@H](OC(=O)CCC(=O)O)O[C@@H]2OC3(C)CC[C@H]4[C@H](C)CC[C@@H]1[C@@]24OO3", "NO"),
    ("O=C(O)c1ccccc1", "NO"),
    ("CC1CC(OC(=O)C(O)c2ccccc2)CC(C)(C)C1 (stereo not drawn)", "NO"),
    ("CCOC(=O)CC(=O)N1CCSC1COc1ccccc1OC (stereo not drawn)", "NO"),
    ("O=c1c(O)c(-c2ccc(O)cc2)oc2cc(O)cc(O)c12", "NO"),
    ("O=C(Nc1ccncc1)c1cc([N+](=O)[O-])ccc1Cl", "YES"),
    ("Cn1cc(C2=C(c3ccc(Cl)cc3Cl)C(=O)NC2=O)c2ccccc21", "NO"),
    ("O=C(O)Cc1cccc(OCCCN(Cc2cccc(C(F)(F)F)c2Cl)CC(c2ccccc2)c2ccccc2)c1", "YES"),
    ("CN(C)CCCn1cc(C2=C(c3c[nH]c4ccccc34)C(=O)NC2=O)c2ccccc21", "NO"),
    ("O=C(O)CCc1ccc(NCc2cccc(Oc3ccccc3)c2)cc1", "NO"),
    ("O=C1CC[C@@H](C(=O)N2CSC[C@H]2C(=O)O)N1 ([pGlu]-[Thz]-OH)", "YES"),
    ("CCC(CO)NCCNC(CC)CO (stereo not drawn)", "NO"),
    ("CC1(O)CCOC(=O)C1 (stereo not drawn)", "NO"),
    ("CC[C@]1(O)CC2CN(CCc3c([nH]c4ccccc34)[C@@](C(=O)OC)(c3cc4c(cc3OC)N(C)[C@H]3[C@@](O)(C(=O)OC)[C@H](OC(C)=O)[C@]5(CC)C=CCN6CC[C@]43[C@@H]65)C2)C1 (stereo partly drawn)", "NO"),
    ("CC(C)(C)n1nc(-c2ccc(Cl)cc2)c2c(N)ncnc21", "YES"),
]
